target_entity: CCR2 (Homo sapiens, UniProt P41597)
Construct: Membranes were prepared from THP-1 cells; endogenous in cells
Sequence (P41597 1-360 isoform P41597-2): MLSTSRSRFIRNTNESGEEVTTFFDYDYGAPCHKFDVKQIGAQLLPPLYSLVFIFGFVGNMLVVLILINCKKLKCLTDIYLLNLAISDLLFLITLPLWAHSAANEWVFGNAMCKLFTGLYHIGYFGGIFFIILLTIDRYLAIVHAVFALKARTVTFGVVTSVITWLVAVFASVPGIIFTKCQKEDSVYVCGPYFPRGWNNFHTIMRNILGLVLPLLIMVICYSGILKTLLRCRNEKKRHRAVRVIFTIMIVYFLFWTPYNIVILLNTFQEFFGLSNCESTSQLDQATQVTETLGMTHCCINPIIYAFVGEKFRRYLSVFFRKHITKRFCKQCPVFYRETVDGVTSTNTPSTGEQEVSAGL
protocol_notes: CCR2 receptor membrane binding assay ([125I]MCP-1, THP-1 cell membranes, SPA beads)
cond: dissociation constant hKi; [125I]MCP-1 binding to THP-1 membranes
pKi: −log10 of the molar value.
measure: pKi

Example compounds with recorded pKi:
Cc1c(NCCc2ccc(Cl)c(Cl)c2)ncnc1C(=O)N1CCC(N2CC[C@@H](C(N)=O)C2)CC1    6.03
Cc1c(NCC2CCC(c3ccc(F)cc3)C2)ncnc1C(=O)N1CCC(N2CCC(N(C)S(C)(=O)=O)CC2)CC1 (stereo not shown) [Example 159q]    8.00
Cc1c(NCc2cccc(Cl)c2)ncnc1C(=O)N1CCC(N2CCC(O)CC2)CC1    6.27

(A) Cc1c(NCC2CCN(c3ccccc3)CC2)ncnc1C(=O)N1CCC(N2CCC(N(C)S(C)(=O)=O)CC2)CC1
(B) Cc1c(NCc2cccc(-c3ccccc3)c2)ncnc1C(=O)N1CCC(N2CCC(N(C)C)CC2)CC1
[Q] Field: entry with larger pKi (options A / B ). # answer = label of selected item
[A] B
(B: 6.76, A: 6.47)
